Target chain: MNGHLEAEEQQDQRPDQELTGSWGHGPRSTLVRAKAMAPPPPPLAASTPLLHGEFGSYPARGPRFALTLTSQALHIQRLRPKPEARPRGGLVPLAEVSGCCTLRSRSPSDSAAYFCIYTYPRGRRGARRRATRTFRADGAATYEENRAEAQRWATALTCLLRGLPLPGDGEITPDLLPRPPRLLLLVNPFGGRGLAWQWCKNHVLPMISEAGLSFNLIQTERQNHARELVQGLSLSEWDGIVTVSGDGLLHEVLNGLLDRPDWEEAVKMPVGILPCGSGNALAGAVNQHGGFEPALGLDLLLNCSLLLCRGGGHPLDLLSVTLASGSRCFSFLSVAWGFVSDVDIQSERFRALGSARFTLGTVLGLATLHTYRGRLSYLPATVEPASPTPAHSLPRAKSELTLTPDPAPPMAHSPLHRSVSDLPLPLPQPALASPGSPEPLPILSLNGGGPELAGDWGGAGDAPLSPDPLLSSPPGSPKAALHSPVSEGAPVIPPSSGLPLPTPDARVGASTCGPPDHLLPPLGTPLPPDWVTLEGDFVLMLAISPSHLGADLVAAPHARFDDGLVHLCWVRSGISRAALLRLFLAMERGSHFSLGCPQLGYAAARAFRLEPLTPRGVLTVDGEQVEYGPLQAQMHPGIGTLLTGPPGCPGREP
Readout Kind: pIC50
In plain terms, pIC50 is the concentration in mol/L turned into minus its base-10 logarithm.

q: Can you share its pIC50? I mean this molecule: `O=C(NCc1ccncc1)C12CC3CC(C1)CC(c1ccc(Cl)cc1)(C3)C2`
a: 4.80
